B1: SNAP91 (parent)
chain: FATASAAVPVSTSKPSSDLLDLQP

Variants of: B1
Experiment: protein stability index of a GFP-peptide fusion (GPS, HEK-293T) (PSI 1-6); higher = more stable;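 further: lentivirally expressed fusions sorted by FACS into six bins by GFP to DsRed ratio, PSI derived from sequencing read proportions per bin multiplied by bin number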
Details: c terminus: a fixed tail appended
Label met when protein stability index is at or above 4; anything below gets not met.

[[record]]
variant_string = "A2P"
assigned_category = "met"

[[record]]
variant_string = "F1T"
assigned_category = "met"

[[record]]
variant_string = "V10A"
assigned_category = "not met"

[[record]]
variant_string = "S13W"
assigned_category = "not met"

[[record]]
variant_string = "S17F"
assigned_category = "not met"

[[record]]
variant_string = "F1E"
assigned_category = "met"

[[record]]
variant_string = "S13I"
assigned_category = "not met"

[[record]]
variant_string = "S13P"
assigned_category = "not met"

[[record]]
variant_string = "P15N"
assigned_category = "not met"

[[record]]
variant_string = "T3L"
assigned_category = "not met"

[[record]]
variant_string = "V10R"
assigned_category = "not met"

[[record]]
variant_string = "V8M"
assigned_category = "not met"

[[record]]
variant_string = "A7I"
assigned_category = "not met"

[[record]]
variant_string = "P24L"
assigned_category = "not met"

[[record]]
variant_string = "A2E"
assigned_category = "met"

[[record]]
variant_string = "L20E"
assigned_category = "met"

[[record]]
variant_string = "D18L"
assigned_category = "not met"

[[record]]
variant_string = "S16Y"
assigned_category = "not met"

[[record]]
variant_string = "S11T"
assigned_category = "not met"

[[record]]
variant_string = "S16N"
assigned_category = "not met"

